Hey, just so you know, these numbers are from ChEMBL document CHEMBL1145277.

Tested on: Cell line
Assay: Inhibitory concentration against TNF-alpha release in LPS-stimulated human whole blood
Type: functional, cell-based
metric: IC50

// solved cases for IC50 follow
smiles_structure	assay_target	IC50
CC1(C)C[C@@H](O)CN(S(=O)(=O)c2ccc(OCc3nccc4ccccc34)cc2)[C@H]1C(=O)NO	Cell line	2.43 µM
Cc1cnsc1COc1ccc(S(=O)(=O)N2C[C@H](O)CC(C)(C)[C@@H]2C(=O)NO)cc1	Cell line	4.95 µM

Shift focus to the following entry.
stdin: Which IC50 reading was recorded for the compound CC1(C)C[C@@H](O)CN(S(=O)(=O)c2ccc(OCc3ccncc3Cl)cc2)[C@H]1C(=O)NO ?
stdout: 10.2 µM

###

System: Cell line
Assay: Inhibitory concentration against TNF-alpha release in LPS-stimulated human whole blood
Format: functional, cell-based
pIC50: −log10 of the molar value.
Use Condition met when the recorded pIC50 is no lower than 5; use Condition not met when it is lower.

smiles_structure	assay_target	label_value
Cc1ccc(F)cc1COc1ccc(S(=O)(=O)N2C[C@H](O)CC[C@@H]2C(=O)NO)cc1	Cell line	Condition met

stdin: Would you say Cc1nscc1COc1ccc(S(=O)(=O)N2C[C@H](O)CC(C)(C)[C@@H]2C(=O)NO)cc1 shows pIC50 at minimum 5?
stdout: Condition met

stdin: Would you say Cc1c(F)cccc1COc1ccc(S(=O)(=O)N2C[C@H](O)CC(C)(C)[C@@H]2C(=O)NO)cc1 shows pIC50 at minimum 5?
stdout: Condition met

stdin: Would you say Cc1cc(F)ccc1COc1ccc(S(=O)(=O)N2C[C@H](O)CC(C)(C)[C@@H]2C(=O)NO)cc1 shows pIC50 at minimum 5?
stdout: Condition met

stdin: Would you say Cc1ccc(COc2ccc(S(=O)(=O)N3C[C@H](O)CC(C)(C)[C@@H]3C(=O)NO)cc2)cc1 shows pIC50 at minimum 5?
stdout: Condition not met

stdin: Would you say Cc1ccccc1COc1ccc(S(=O)(=O)N2C[C@H](O)CC(C)(C)[C@@H]2C(=O)NO)cc1 shows pIC50 at minimum 5?
stdout: Condition met

stdin: Would you say CCc1ccccc1COc1ccc(S(=O)(=O)N2C[C@H](O)CC(C)(C)[C@@H]2C(=O)NO)cc1 shows pIC50 at minimum 5?
stdout: Condition met

stdin: Would you say CC1(C)C[C@@H](O)CN(S(=O)(=O)c2ccc(OCc3ccc(Cl)cc3Cl)cc2)[C@H]1C(=O)NO shows pIC50 at minimum 5?
stdout: Condition not met

stdin: Would you say Cc1cccc(COc2ccc(S(=O)(=O)N3C[C@H](O)CC(C)(C)[C@@H]3C(=O)NO)cc2)c1 shows pIC50 at minimum 5?
stdout: Condition not met

stdin: Would you say CC1(C)C[C@@H](O)CN(S(=O)(=O)c2ccc(OCc3cccc(Br)c3)cc2)[C@H]1C(=O)NO shows pIC50 at minimum 5?
stdout: Condition not met

stdin: Would you say Cc1ncccc1COc1ccc(S(=O)(=O)N2C[C@H](O)CC(C)(C)[C@@H]2C(=O)NO)cc1 shows pIC50 at minimum 5?
stdout: Condition met

stdin: Would you say CC(C)c1ccccc1COc1ccc(S(=O)(=O)N2C[C@H](O)CC(C)(C)[C@@H]2C(=O)NO)cc1 shows pIC50 at minimum 5?
stdout: Condition met

stdin: Would you say Cc1ccc(F)cc1COc1ccc(S(=O)(=O)N2C[C@H](O)CC(C)(C)[C@@H]2C(=O)NO)cc1 shows pIC50 at minimum 5?
stdout: Condition met

stdin: Would you say CC1(C)C[C@@H](O)CN(S(=O)(=O)c2ccc(OCc3ccnc4ccccc34)cc2)[C@H]1C(=O)NO shows pIC50 at minimum 5?
stdout: Condition met
